Biological target: MAP1LC3B ATG8 (Homo sapiens)
Assay: FP displacement assay, MAP1LC3B ATG8
Type: binding
Conditions: read-out: KD-values [µM] + SEM
Here the recorded Kd is given for each entry.
Kindly provide the numeric value in µM only, without the unit symbol.

Some substances with recorded Kd:
>>> print(df.to_string())
                                  substance                   system_name  numeric_result
0  Ac-EDEVYEILRDTSEEDS-NH2 [BRCA2_292-307 T298I/V299L/V300R]  MAP1LC3B ATG8 (Homo sapiens)            0.52
1  Ac-DKDEWQFLDQNEDAFE-NH2 [BUB1_486-501 S492F]  MAP1LC3B ATG8 (Homo sapiens)             1.6

For Ac-DKDEWQSLDQNEDAFE-NH2 [BUB1_486-501 wild-type] , what is its reported Kd?
7

For Ac-EDEVYETVVDTSEEDS-NH2 [BRCA2_292-307 wild-type] , what is its reported Kd?
3.12

---

Target: CLTC NTD (Homo sapiens)
Sequence (Q00610 1-364): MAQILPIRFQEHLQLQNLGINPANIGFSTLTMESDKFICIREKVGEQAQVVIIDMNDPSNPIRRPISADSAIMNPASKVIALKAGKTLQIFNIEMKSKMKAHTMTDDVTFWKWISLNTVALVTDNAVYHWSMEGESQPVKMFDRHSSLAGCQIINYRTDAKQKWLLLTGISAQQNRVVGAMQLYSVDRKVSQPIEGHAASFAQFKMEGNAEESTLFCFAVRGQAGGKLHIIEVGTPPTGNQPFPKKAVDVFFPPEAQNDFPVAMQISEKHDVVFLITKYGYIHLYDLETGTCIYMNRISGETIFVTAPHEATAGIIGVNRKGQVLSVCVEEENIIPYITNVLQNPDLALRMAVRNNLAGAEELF
Test: FP displacement assay, CLTC NTD
Assay type: binding
Details: read-out: KD-values [µM] + SEM
Here the recorded Kd is given for each entry.
Kindly provide the numeric value in µM only, without the unit symbol.

                                  substance  property_name  numeric_result
0  Ac-SGNLIDLCGNQGLPY-NH2 [MITF_258-271 Y265C]             Kd             206

Could you share what Kd was measured for Ac-SGNLIDLYGNQGLPY-NH2 [MITF_258-271 wild-type] , tested on CLTC NTD (Homo sapiens)?
191

---

Target: ABL1 SH3 (Homo sapiens, UniProt P00519)
Sequence (P00519 60-121): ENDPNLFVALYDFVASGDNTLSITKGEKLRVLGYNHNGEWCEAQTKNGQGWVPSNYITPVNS
Test: GenVar_HD2 ProP-PD phage selection, ABL1 SH3
Type: binding
Conditions: phage selection, bait ABL1_SH3__P00519_60_121
PROPERTY_NAME: specificity
Lab note: jot down the number only; don't add units.

Some sequences with recorded specificity:
>>> df
           residues  numeric_result
0  NGSLVPVPPTTPAPGV          0.8421
1  PLFPPPGEPSLSPLLG          0.9995
2  EPRFSPPHSPPGPAMP          0.9643
3  LDSSEPRFSPPLSPPG               1

Let's switch to this sequence now.
For EPRFSPPPSPPGPAMP , what is its reported specificity?
0.995
